Target: RORγt (Homo sapiens (Human), UniProt P51449)
Sequence (P51449 269-508): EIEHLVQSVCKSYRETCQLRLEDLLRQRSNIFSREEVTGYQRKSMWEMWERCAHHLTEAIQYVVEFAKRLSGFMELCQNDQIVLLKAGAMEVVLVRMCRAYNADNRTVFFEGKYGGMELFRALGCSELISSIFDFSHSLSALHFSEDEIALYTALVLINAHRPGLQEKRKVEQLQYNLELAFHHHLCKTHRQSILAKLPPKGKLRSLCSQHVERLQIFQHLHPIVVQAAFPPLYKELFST
Assay: RORγt Gal fusion assay (Gal4 ligand binding reporter assay)
Details: RORγt inverse agonists
This section presents molecules with their documented IC50 values.
MEASUREMENT_LABEL: IC50

[
  {
    "MOLECULE": "CCOC(=O)C[C@@H]1CN(Cc2ccc(-c3ccc(C(O)(C(F)(F)F)C(F)(F)F)cc3)cc2)CCN1Cc1ccncc1",
    "MEASUREMENT_LABEL": "IC50",
    "REPORTED_VALUE": "< 1000 nM"
  },
  {
    "MOLECULE": "CCOC(=O)C1CN(Cc2ccc(-c3ccc(C(O)(C(F)(F)F)C(F)(F)F)cc3)cc2)CCN1Cc1ccncc1 (stereo not shown)",
    "MEASUREMENT_LABEL": "IC50",
    "REPORTED_VALUE": "< 1000 nM"
  },
  {
    "MOLECULE": "CCOC(=O)CC1CN(Cc2ccncc2)CCN1Cc1ccc(-c2ccc(C(O)(C(F)(F)F)C(F)(F)F)cc2)cc1 (stereo not shown)",
    "MEASUREMENT_LABEL": "IC50",
    "REPORTED_VALUE": "< 1000 nM"
  },
  {
    "MOLECULE": "CC(C)OC(=O)CC1CN(Cc2ccc(-c3ccc(C(O)(C(F)(F)F)C(F)(F)F)cc3)cc2)CCN1Cc1ccncc1 (stereo not shown)",
    "MEASUREMENT_LABEL": "IC50",
    "REPORTED_VALUE": "< 1000 nM"
  },
  {
    "MOLECULE": "CCOC(=O)CC1CN(Cc2ccc(-c3ccc(C(O)(C(F)(F)F)C(F)(F)F)cc3)cc2)CCN1Cc1ccncc1 (stereo not shown)",
    "MEASUREMENT_LABEL": "IC50",
    "REPORTED_VALUE": "< 1000 nM"
  },
  {
    "MOLECULE": "CCOCCOC(=O)C[C@H]1CN(Cc2ccc(-c3ccc(C(O)(C(F)(F)F)C(F)(F)F)cc3)cc2)CCN1Cc1ccncc1",
    "MEASUREMENT_LABEL": "IC50",
    "REPORTED_VALUE": "< 1000 nM"
  },
  {
    "MOLECULE": "CCOC(=O)C1CN(Cc2ccncc2)CCN1Cc1ccc(-c2ccc(C(O)(C(F)(F)F)C(F)(F)F)cc2)cc1 (stereo not shown)",
    "MEASUREMENT_LABEL": "IC50",
    "REPORTED_VALUE": "< 1000 nM"
  },
  {
    "MOLECULE": "O=C(O)C1CN(Cc2ccc(-c3ccc(C(O)(C(F)(F)F)C(F)(F)F)cc3)cc2)CCN1Cc1ccncc1 (stereo not shown)",
    "MEASUREMENT_LABEL": "IC50",
    "REPORTED_VALUE": "> 10000 nM"
  },
  {
    "MOLECULE": "CCOC(=O)CC1CN(Cc2ccc(-c3ccc(C(O)(C(F)(F)F)C(F)(F)F)cc3)c(C)c2)CCN1Cc1ccncc1 (stereo not shown)",
    "MEASUREMENT_LABEL": "IC50",
    "REPORTED_VALUE": "< 1000 nM"
  },
  {
    "MOLECULE": "O=C(O)CC1CN(Cc2ccc(-c3ccc(C(O)(C(F)(F)F)C(F)(F)F)cc3)cc2)CCN1Cc1ccncc1 (stereo not shown)",
    "MEASUREMENT_LABEL": "IC50",
    "REPORTED_VALUE": "> 10000 nM"
  },
  {
    "MOLECULE": "CCOCCOC(=O)CC1CN(Cc2ccc(-c3ccc(C(O)(C(F)(F)F)C(F)(F)F)cc3)cc2)CCN1Cc1ccncc1 (stereo not shown)",
    "MEASUREMENT_LABEL": "IC50",
    "REPORTED_VALUE": "< 1000 nM"
  },
  {
    "MOLECULE": "O=C(CC1CN(Cc2ccc(-c3ccc(C(O)(C(F)(F)F)C(F)(F)F)cc3)cc2)CCN1Cc1ccncc1)OCCO (stereo not shown)",
    "MEASUREMENT_LABEL": "IC50",
    "REPORTED_VALUE": "< 1000 nM"
  },
  {
    "MOLECULE": "CC(C)NC(=O)C1CN(Cc2ccncc2)CCN1Cc1ccc(-c2ccc(C(O)(C(F)(F)F)C(F)(F)F)cc2)cc1 (stereo not shown)",
    "MEASUREMENT_LABEL": "IC50",
    "REPORTED_VALUE": "> 10000 nM"
  }
]
